Values were extracted from patent US12624034B2.

measured_on: AKT2 (Homo sapiens)
Construct: expressed in transfected cells; host or cells: HEK293
Sequence (P31751 whole entry): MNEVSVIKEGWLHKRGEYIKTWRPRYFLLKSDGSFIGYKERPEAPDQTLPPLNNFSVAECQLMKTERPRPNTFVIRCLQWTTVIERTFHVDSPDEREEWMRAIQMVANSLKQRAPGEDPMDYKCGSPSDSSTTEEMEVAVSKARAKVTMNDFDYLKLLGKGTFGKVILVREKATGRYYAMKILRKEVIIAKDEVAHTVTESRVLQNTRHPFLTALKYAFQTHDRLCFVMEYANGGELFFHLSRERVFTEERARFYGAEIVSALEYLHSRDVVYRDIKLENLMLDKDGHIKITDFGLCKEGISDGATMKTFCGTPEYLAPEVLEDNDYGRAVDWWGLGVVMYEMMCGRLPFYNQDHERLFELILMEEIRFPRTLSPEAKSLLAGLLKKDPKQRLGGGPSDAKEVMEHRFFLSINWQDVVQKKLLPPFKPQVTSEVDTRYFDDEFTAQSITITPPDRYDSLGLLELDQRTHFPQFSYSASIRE
assay_procedure: Live cell AKT2 target engagement by NanoBRET competitive probe displacement in HEK293 cells
Format: binding
conditions_used: NanoBRET competitive probe displacement, live HEK293 cells, 2 h at 37° C.; read-out: AKT2 IC50
quantity_measured: IC50 (µM)

COc1nccc2c1CCC2N[C@H]1CCc2cc(-n3c(-c4cccnc4N)nc4ccc(-n5cccn5)nc43)ccc21 (stereo partly shown) [Compound 509]: 0.928
Nc1ncccc1-c1nc2ccc(-n3cccn3)nc2n1-c1ccc2c(c1)CC[C@@H]2NC1CCN(C(=O)C2CC2)CC1F (stereo partly shown) [Compound 446]: 1.33

1. Nc1ncccc1-c1nc2ccc(-n3ccc(C4CC4)n3)nc2n1-c1ccc2c(c1)CC(F)[C@@H]2NC1CCN(C(=O)C2CC2)CC1 (stereo partly shown)
2. O=C(N[C@H]1CCc2cc(-n3c(-c4ccccc4)nc4ccc(-c5ccn(C6CC6)n5)nc43)ccc21)c1ccc(C(F)F)nc1
INPUT: Looking only at measured IC50, which entry is lower, 1 or 2 ? Kindly state the label of the option you pick.
OUTPUT: 2
(2: 1.45 µM, 1: 3.14 µM)
